From: patent US20130131043A1

# System Under Test: JAK2 (Homo sapiens, UniProt O60674)
# Construct: endogenous in cells; mixed Molt4/Ramos lysate 1:2
# Sequence (O60674 whole entry): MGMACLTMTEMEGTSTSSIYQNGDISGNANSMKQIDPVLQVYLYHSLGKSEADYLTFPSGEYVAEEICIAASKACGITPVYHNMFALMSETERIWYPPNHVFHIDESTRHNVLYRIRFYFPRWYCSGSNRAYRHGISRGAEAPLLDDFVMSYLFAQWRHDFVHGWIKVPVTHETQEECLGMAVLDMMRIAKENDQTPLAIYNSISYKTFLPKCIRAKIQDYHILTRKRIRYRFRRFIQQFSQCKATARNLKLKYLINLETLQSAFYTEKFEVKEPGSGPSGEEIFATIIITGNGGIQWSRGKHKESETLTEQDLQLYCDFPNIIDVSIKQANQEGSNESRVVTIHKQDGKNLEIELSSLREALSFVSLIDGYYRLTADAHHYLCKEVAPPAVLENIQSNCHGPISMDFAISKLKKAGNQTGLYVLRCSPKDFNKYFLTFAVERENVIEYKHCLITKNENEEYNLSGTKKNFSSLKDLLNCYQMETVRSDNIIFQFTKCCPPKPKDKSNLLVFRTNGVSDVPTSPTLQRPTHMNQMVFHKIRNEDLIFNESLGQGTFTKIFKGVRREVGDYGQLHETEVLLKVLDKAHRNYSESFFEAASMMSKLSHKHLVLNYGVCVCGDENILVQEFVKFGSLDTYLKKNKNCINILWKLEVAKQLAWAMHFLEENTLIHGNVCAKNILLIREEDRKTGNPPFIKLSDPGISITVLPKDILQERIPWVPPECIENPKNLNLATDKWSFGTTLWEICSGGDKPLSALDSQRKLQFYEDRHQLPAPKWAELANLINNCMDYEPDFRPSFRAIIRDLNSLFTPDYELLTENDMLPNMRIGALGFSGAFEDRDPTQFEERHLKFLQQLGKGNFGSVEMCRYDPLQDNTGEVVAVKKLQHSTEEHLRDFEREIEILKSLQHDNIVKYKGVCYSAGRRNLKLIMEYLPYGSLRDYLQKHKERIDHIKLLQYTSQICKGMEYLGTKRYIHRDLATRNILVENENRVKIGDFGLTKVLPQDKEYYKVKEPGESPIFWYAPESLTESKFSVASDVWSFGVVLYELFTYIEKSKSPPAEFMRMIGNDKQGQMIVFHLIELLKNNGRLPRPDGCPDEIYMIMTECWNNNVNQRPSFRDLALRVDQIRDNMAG
# Procedure Text: Kinobeads assay, JAK2 (competition binding in cell lysate, dot blot detection)
# Experimental Conditions: mixed Molt4/Ramos lysate
pIC50: −log10 of the molar value.
Below: a set of entries, each annotated with reported pIC50.

Consider the reported pIC50 for these molecules:
{"columns": ["Molecule", "Value"],
 "data": [
  ["CCS(=O)(=O)N1CCC(Cn2ncc3cnc(Nc4cnn(C)c4)nc32)C1 (stereo not drawn) [Example 42]", "< 5.00"],
  ["CCOC(=O)N1CCCC(Cn2ncc3cnc(Nc4cnn(C)c4)nc32)C1 (stereo not drawn) [Example 36]", "< 5.00"]
]}

Now consider a different molecule.
Asked: Given the entry COCCC(=O)N1CCCC(Cn2ncc3cnc(Nc4cnn(C)c4)nc32)C1 (stereo not drawn) [Example 27] , report its measured pIC50.
Given back: 5.00 to 6.00

====

# System Under Test: JAK3 (Homo sapiens, UniProt P52333)
# Construct: endogenous in cells; host or cells: Molt4 (ATCC CRL-1582) and Ramos (ATCC CRL-1596) cell lysate; mixed Molt4/Ramos lysate 1:2
# Sequence (P52333 whole entry): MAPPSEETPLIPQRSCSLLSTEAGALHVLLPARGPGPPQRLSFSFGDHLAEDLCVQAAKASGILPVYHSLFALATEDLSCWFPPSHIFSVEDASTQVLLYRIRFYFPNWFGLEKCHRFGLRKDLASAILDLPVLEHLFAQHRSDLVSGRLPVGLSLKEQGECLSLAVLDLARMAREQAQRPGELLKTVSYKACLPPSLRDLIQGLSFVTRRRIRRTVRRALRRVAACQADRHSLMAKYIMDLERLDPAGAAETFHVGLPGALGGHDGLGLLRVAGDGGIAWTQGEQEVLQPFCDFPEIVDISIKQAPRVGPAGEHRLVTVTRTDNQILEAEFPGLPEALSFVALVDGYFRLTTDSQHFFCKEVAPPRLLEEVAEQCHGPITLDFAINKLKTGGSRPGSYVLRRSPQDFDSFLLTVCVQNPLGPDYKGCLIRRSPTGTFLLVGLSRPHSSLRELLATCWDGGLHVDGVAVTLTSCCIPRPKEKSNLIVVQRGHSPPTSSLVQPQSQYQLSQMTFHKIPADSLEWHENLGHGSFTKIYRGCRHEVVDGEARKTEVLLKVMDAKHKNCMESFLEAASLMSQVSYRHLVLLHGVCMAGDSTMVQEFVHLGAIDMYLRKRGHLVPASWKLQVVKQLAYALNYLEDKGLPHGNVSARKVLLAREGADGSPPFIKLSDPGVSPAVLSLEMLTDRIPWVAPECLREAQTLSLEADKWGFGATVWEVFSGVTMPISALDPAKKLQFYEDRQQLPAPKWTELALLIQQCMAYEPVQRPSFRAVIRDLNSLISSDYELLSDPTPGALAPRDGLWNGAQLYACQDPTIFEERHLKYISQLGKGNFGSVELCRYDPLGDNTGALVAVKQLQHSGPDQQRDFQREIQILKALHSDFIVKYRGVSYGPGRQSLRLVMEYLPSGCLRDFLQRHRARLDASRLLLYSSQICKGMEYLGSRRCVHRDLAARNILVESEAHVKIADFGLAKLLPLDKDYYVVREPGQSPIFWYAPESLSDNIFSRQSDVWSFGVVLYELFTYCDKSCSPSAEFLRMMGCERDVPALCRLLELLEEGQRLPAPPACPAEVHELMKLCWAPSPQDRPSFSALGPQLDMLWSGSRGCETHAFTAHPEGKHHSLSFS
# Procedure Text: Kinobeads assay, JAK3 (competition binding in cell lysate, dot blot detection)
# Experimental Conditions: mixed Molt4/Ramos lysate
Recorded measurements of IC50, one per entry

{"columns": ["Compound", "Value"],
 "data": [
  ["CC(C)NC(=O)CN1CCC(Cn2ncc3cnc(Nc4cnn(C)c4)nc32)C1 (stereo not drawn) [Example 68]", "100 to 1000 nM"],
  ["Cn1cc(Nc2ncc3cnn(C4CCOCC4)c3n2)cn1 [Example 9]", "100 to 1000 nM"]
]}

Asked: What is its IC50 for JAK3 (Homo sapiens, UniProt P52333)? Entry: Cn1cc(Nc2ncc3cnn(C4CCN(C(=O)CC#N)CC4)c3n2)cn1 [Example 24]
Given back: 100 to 1000 nM

Asked: # query: IC50 | item Cn1cc(Nc2ncc3cnn(CC4CCCN(S(=O)(=O)C5CC5)C4)c3n2)cn1 (stereo not drawn) [Example 33] | system: JAK3 (Homo sapiens, UniProt P52333)
Given back: < 100 nM

Asked: Recall the recorded IC50 for CCNC(=O)N1CCCC(Cn2ncc3cnc(Nc4cnn(C)c4)nc32)C1 (stereo not drawn) [Example 51] with JAK3 (Homo sapiens, UniProt P52333) and state it.
Given back: < 100 nM

Asked: Identify the measured IC50 of CC(C)S(=O)(=O)N1CCCC(Cn2ncc3cnc(Nc4cnn(CC(F)F)c4)nc32)C1 (stereo not drawn) [Example 61] for JAK3 (Homo sapiens, UniProt P52333).
Given back: < 100 nM

Asked: Query for JAK3 (Homo sapiens, UniProt P52333): what IC50 does the record show for Cn1cc(Nc2ncc3cnn(C4CCN(S(C)(=O)=O)CC4)c3n2)cn1 [Example 3] ?
Given back: 100 to 1000 nM

Asked: What IC50 appears in the records for this compound with JAK3 (Homo sapiens, UniProt P52333)? CNC(=O)CN1CCCC(Cn2ncc3cnc(Nc4cnn(C)c4)nc32)C1 (stereo not drawn) [Example 64]
Given back: < 100 nM

Asked: Quick check: IC50 on JAK3 (Homo sapiens, UniProt P52333), item CN(C)CC(=O)N1CCCC(Cn2ncc3cnc(Nc4cnn(C)c4)nc32)C1 (stereo not drawn) [Example 29] ?
Given back: 100 to 1000 nM
